# EXPERIMENTAL_SYSTEM: UniProt:Q13547
# Sequence (Q13547 whole entry): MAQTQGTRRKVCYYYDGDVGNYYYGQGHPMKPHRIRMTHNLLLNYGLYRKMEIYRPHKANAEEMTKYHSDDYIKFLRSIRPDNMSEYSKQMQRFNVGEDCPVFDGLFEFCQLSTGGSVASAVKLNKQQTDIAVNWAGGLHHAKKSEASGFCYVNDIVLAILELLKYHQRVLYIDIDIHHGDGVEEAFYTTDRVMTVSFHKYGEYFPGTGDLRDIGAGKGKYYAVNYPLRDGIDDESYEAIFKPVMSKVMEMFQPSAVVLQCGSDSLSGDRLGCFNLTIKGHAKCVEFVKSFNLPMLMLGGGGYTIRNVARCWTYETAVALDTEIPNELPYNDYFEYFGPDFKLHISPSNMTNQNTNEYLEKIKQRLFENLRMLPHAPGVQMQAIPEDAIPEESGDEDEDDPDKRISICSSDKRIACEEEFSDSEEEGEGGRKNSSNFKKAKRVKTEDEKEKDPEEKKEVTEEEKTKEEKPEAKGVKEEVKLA
# ASSAY_DETAILS: Reporter displacement assay (HDAC1)
# ASSAY_CONDITIONS: reporter probe displacement, Cheng Prusoff
pKd: −log10 of the molar value.
Recorded measurements of pKd, one per entry

>  <COMPOUND>
Nc1ccc(-c2ccc(F)cc2)cc1NC(=O)N1CCC2(CCOCC2)C1

>  <pKd>
6.30 to 7.00

$$$$
>  <COMPOUND>
Nc1ccc(-c2ccc(F)cc2)cc1NC(=O)c1nc2c(s1)CCNC2

>  <pKd>
> 7.00

$$$$
>  <COMPOUND>
CC(C)(C)OC(=O)N1CCC2(CC1)CN(C(=O)Nc1cc(-c3ccc(F)cc3)ccc1N)C2

>  <pKd>
5.30 to 6.30

$$$$
>  <COMPOUND>
Nc1ccc(-c2ccncc2)cc1NC(=O)N1CCC2(CC1)CCN(C1COC1)C2

>  <pKd>
5.30 to 6.30

$$$$

Attention now shifts to the item below.
Q. // fetch pKd given entry CC(=O)N1C2CCC1CN(C(=O)Nc1cc(-c3ccncc3)ccc1N)C2 [Compound 107]
A. < 5.30

Attribution: patent US10421756B2
